pEC50 listing for selected binders.
Biological target: T1, His-tagged cynomolgus 4-1BB protein (cynomolgus, UniProt A9YYE7 24-186)
T1 construct: Coated on ELISA plates at 2 µg/ml; also called Cyno 4-1BB; soluble cynomolgus 4-1BB; not shown: His tag
T1 sequence: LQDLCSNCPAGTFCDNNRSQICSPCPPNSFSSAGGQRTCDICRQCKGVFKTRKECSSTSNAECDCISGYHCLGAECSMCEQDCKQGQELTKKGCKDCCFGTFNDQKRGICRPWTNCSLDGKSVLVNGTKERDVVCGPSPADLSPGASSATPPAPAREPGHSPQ
Assay: ELISA, coated His-tagged 4-1BB, anti-human IgG-HRP
Friendly reminder that pEC50 comes from taking -log10 of the concentration in mol/L.

Below: 2 binders and their reported pEC50.
>>> experimental_result("VV02-3LP-142 (Fc fusion, Llama nanobody tested as fusion with human IgG1 Fc (N297A); not shown: Human IgG1 Fc fragment with N297A, plus the hinge or linker joining it to the nanobody) VHH: AVQLVESGGGLVQRGGSLKLSCVGSGFDFSDHAMSWARQVPGKGFEWVAYIYSDGSTYYADSVKGRFTISRDNAKDTVYLHMNSLKFEDMAVYYCATWRSQQVGRWDEYDHWGQGTQVTVSS")
7.74
>>> experimental_result("VV02-1SP (1)-55 (Fc fusion, not shown: a dimerising Fc or GST; small tags and cut ends, Llama nanobody tested as fusion with human IgG1 Fc (N297A)) VHH: EVQLVESGGGLVQPGGSLRLSCAASGFTFSSSAMSWARQVPGKGFEWVAYIYSDGSTYYADSVKGRFTISRDNAKDTVYLHMNSLKFEDMAVYYCATWRSQQVGRWDEYDYWGQGIQVTVSS")
8.73

Next up:
Short answer for VV02-1LP-422 (Fc fusion, not shown: a dimerising Fc or GST; small tags and cut ends, Llama nanobody tested as fusion with human IgG1 Fc (N297A)) VHH: QLQLVESGGGLVQPGGSLRLSCAASGFTLADYAIGWFRQAPGKEREGVLCISSSGDVTIYADSVKGRFTISRDNAKNTVYLQMNSLKPEDTAVYYCVAPRICSTYSSDDYWGQGTQVTVSS : pEC50 was 8.16

Recorded values, source patent US20240383993A1.
